tested on: ALOMY (blackgrass); experiment: Post-Emergent Test III (Wheat and Barley); format: in vivo, Alopecurus myosuroides; settings: Alopecurus myosuroides, post-emergence, 504 h; 35 g ai/ha, postemergence; read-out: Visual Growth Reduction (%) 21 Days After Application, ALOMY
QUANTITY NAME: pest or weed control at 35 g/ha

>>> print(df.to_string())
                           structure_smiles  experimental_system  experimental_value
0  Nc1c(F)c(-c2ccc(C3CC3)nc2)nc(C(=O)O)c1Cl   ALOMY (blackgrass)            0 to 29%
1  Cc1c(-c2ccc(C(F)(F)F)nc2)nc(C(=O)O)c(Cl)c1N   ALOMY (blackgrass)            0 to 29%
2  COC(=O)c1nc(-c2ccc(Cl)c(F)c2OC)cc(N)c1Cl   ALOMY (blackgrass)           45 to 59%
3  COC(=O)c1nc(-c2ccc(Cl)c(F)c2OC)c(F)c(N)c1Cl   ALOMY (blackgrass)            0 to 29%

Bench note, ALOMY (blackgrass): entry Nc1c(Cl)c(C(=O)O)nc(-c2ccc(C(F)(F)F)nc2)c1Cl , its pest or weed control at 35 g/ha = 60 to 74%

Short answer on ALOMY (blackgrass) for COC(=O)c1nc(-c2ccc(C(F)(F)F)nc2)c(F)c(N)c1Cl , pest or weed control at 35 g/ha: 30 to 44%

Per the reported ALOMY (blackgrass) data, Nc1c(F)c(-c2ccc(OC(F)F)nc2)nc(C(=O)O)c1Cl has pest or weed control at 35 g/ha of 0 to 29%

Given the molecule COC(=O)c1nc(-c2ccc(OC(F)F)nc2)c(F)c(N)c1Cl and test system ALOMY (blackgrass), the measured pest or weed control at 35 g/ha is 0 to 29%

Note to self: pest or weed control at 35 g/ha of COC(=O)c1nc(-c2ccc(C3CC3)nc2)c(F)c(N)c1Cl with ALOMY (blackgrass) was 0 to 29%

Hey, ALOMY (blackgrass) data for COC(=O)c1nc(-c2ccc(C(F)(F)F)nc2)c(Cl)c(N)c1Cl : pest or weed control at 35 g/ha came out at 60 to 74%
